tgt: T1, GFP-9S library array, motif 4 ND N98T;D124E (synthetic construct, N98T;D124E)
T1 chain: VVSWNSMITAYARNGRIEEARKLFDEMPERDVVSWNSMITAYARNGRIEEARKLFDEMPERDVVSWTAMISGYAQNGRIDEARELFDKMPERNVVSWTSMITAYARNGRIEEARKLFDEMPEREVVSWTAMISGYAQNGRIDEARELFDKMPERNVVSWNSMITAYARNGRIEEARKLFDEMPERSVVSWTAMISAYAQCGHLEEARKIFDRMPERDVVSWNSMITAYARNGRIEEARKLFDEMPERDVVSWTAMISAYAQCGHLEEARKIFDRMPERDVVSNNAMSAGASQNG
testMethodNotes: high-throughput RNA pulldown from lysate on Ni-NTA beads; HRP: 50 mM Tris pH 8, 150 mM NaCl, 1 mM beta-mercaptoethanol, 50 ug/ml BSA, 3 ug/ml yeast RNA, 0.5% heparin; ITC and FP: Tris pH 8, 200 mM KCl, 5% glycerol; MST: 50 mM Tris pH 8, 200 mM NaCl, 1 mM DTT, BSA, heparin, 0.05% Tween 20
runConditions: tags: N-terminal His-eGFP; label: 5' IRDye 800CW
testReadout: Kd (nM)
Write the value in nM as a bare number.

AUUAUACGUGA (ssRNA) [IR-rpoA-U] :: 134

Lab note: next binder to report on.
Exam item: Query: Kd; subject: AUUAAACGUGA (ssRNA) [IR-rpoA-A]
Marked response: 185

Data provenance: paper PMC8809517
